- study-target: Excitatory amino acid transporter 2 (Homo sapiens)
- experimental-details: Potency (100 uM) to induce a transport current in the presence of glutamate in oocytes expressing human excitatory amino acid transporter 2 (EAAT2)
- Type: functional, cell-based
- condition-info: Oocyte
assay-endpoint: Activity (%)

In [3]: df
Out[3]:
                                   compound                              study_target  assay_endpoint  value_units  observed_measurement
0  N[C@H](C(=O)O)[C@H](OCc1ccccc1)C(=O)O (stereo in doubt; form 2)  Excitatory amino acid transporter 2 (Homo sapiens)        Activity            %                     0
1             CO[C@H](C(=O)O)[C@H](N)C(=O)O  Excitatory amino acid transporter 2 (Homo sapiens)        Activity            %                     0
2   NC(C(=O)O)C(OCc1ccccc1)C(=O)O (racemic)  Excitatory amino acid transporter 2 (Homo sapiens)        Activity            %                     0

Sourced from ChEMBL document CHEMBL1132792
